What logD was measured for each of the following?
assay: Octanol/water partition coefficient, logD of compound at pH 7.4 by HPLC analysis; type: physicochemical
Answers are plain numbers.

CC(C)C[C@@H]1NC(=O)[C@H](C(C)C)N(C)C(=O)[C@H]2CCCN2C(=O)[C@H](CC(C)C)NC(=O)[C@H](C)N(C)C(=O)[C@H](CC(C)C)NC(=O)[C@H](C(C)C)N(C)C(=O)[C@H]2CCCN2C(=O)[C@H](CC(C)C)NC(=O)[C@H](C)N(C)C1=O: 5.1

Q: Look up logD: CC(C)C[C@@H]1NC(=O)[C@H](C)N(C)C(=O)[C@H](CC(C)C)NC(=O)[C@H]2CCCN2C(=O)[C@@H]2CCCN2C(=O)[C@H](CC(C)C)NC(=O)[C@H](C)N(C)C(=O)[C@H](CC(C)C)NC(=O)[C@H](C(C)C)N(C)C(=O)[C@@H](C)N(C)C1=O
Ans: 5.1

* * *

experiment: Solubility of the compound by high-throughput equilibrium solubility assay; type: physicochemical
Where a SMILES comes first, the peptide text is derived from it. [ ]: non-standard residue; d: D form. NMeF = CN[C@@H](Cc1ccccc1)C(=O)O; NMeA = CN[C@@H](C)C(=O)O; dNMeA = CN[C@H](C)C(=O)O
attribute.measured: solubility thermodynamic (µM)
Give bare numbers, in µM.

Known solubility thermodynamic results, listed for orientation:
CC(C)C[C@@H]1NC(=O)[C@H](Cc2ccccc2)N(C)C(=O)[C@H]2CCCN2C(=O)[C@H](CC(C)C)NC(=O)[C@H](C)N(C)C(=O)[C@H](CC(C)C)NC(=O)[C@H](Cc2ccccc2)N(C)C(=O)[C@H]2CCCN2C(=O)[C@H]([C@@H](C)O)NC(=O)[C@H](C)N(C)C1=O: 20
CC(C)C[C@@H]1NC(=O)[C@H]([C@@H](C)O)N(C)C(=O)[C@@H]2C[C@@H](O)CN2C(=O)[C@H](CC(C)C)NC(=O)[C@H](C)N(C)C(=O)[C@H](CC(C)C)NC(=O)[C@H](Cc2ccccc2)N(C)C(=O)[C@@H]2C[C@@H](O)CN2C(=O)[C@H](CC(C)C)NC(=O)[C@H](C)N(C)C1=O: 320
CC(C)C[C@@H]1NC(=O)[C@H](C)N(C)C(=O)[C@H]2CCCN2C(=O)[C@H](CC(C)C)NC(=O)[C@H](C)N(C)C(=O)[C@H](CC(C)C)NC(=O)[C@H](C)N(C)C(=O)[C@H]2CCCN2C(=O)[C@H](CC(C)C)NC(=O)[C@H]([C@@H](C)O)N(C)C1=O: 763

Below: the item to evaluate.
Q: Look up solubility thermodynamic: CC(C)C[C@@H]1NC(=O)[C@H](C)N(C)C(=O)[C@H](CC(C)C)NC(=O)[C@H](Cc2ccccc2)N(C)C(=O)[C@@H](C)N(C)C(=O)[C@H](CC(C)C)NC(=O)[C@H](C)N(C)C(=O)[C@H](CC(C)C)NC(=O)[C@H](Cc2ccccc2)N(C)C(=O)[C@@H](C)N(C)C1=O (cyclo(L[NMeA]L[dNMeA][NMeF]L[NMeA]L[dNMeA][NMeF]))
Ans: 4

* * *

What solubility thermodynamic was measured for each of the following?
assay: Solubility of the compound by high-throughput equilibrium solubility assay; type: physicochemical
Give bare numbers, in µM.

CC(C)C[C@@H]1NC(=O)[C@H](C(C)C)N(C)C(=O)[C@H]2CCCN2C(=O)[C@H](CC(C)C)NC(=O)[C@H](C)N(C)C(=O)[C@H](CC(C)C)NC(=O)[C@H](C(C)C)N(C)C(=O)[C@H]2CCCN2C(=O)[C@H](CC(C)C)NC(=O)[C@H](C)N(C)C1=O: 57

Below: the item to evaluate.
Q: Look up solubility thermodynamic: CC(C)C[C@@H]1NC(=O)[C@@H]2CCCN2C(=O)[C@H]2CCCN2C(=O)[C@H](CC(C)C)NC(=O)[C@H](C)N(C)C(=O)[C@H](CC(C)C)NC(=O)[C@@H]2CCCN2C(=O)[C@H]2CCCN2C(=O)[C@H](CC(C)C)NC(=O)[C@H](C)N(C)C1=O
Ans: 220
